Origin of values: patent US20180008587A1

molecular target: F876L mutant Androgen Receptor (AR-F876L) (Homo sapiens, UniProt P10275, F877L); construct: expressed in transfected cells; host or cells: LNCaP (LNCaP F876L); assay: LNCaP-AR-F876L ANT reporter assay (ARE firefly luciferase, antagonist mode); format: cell-based; details: read-out: LNCaP-AR-F876L ANT MAX % Inh
Sequence (P10275 whole entry F877L): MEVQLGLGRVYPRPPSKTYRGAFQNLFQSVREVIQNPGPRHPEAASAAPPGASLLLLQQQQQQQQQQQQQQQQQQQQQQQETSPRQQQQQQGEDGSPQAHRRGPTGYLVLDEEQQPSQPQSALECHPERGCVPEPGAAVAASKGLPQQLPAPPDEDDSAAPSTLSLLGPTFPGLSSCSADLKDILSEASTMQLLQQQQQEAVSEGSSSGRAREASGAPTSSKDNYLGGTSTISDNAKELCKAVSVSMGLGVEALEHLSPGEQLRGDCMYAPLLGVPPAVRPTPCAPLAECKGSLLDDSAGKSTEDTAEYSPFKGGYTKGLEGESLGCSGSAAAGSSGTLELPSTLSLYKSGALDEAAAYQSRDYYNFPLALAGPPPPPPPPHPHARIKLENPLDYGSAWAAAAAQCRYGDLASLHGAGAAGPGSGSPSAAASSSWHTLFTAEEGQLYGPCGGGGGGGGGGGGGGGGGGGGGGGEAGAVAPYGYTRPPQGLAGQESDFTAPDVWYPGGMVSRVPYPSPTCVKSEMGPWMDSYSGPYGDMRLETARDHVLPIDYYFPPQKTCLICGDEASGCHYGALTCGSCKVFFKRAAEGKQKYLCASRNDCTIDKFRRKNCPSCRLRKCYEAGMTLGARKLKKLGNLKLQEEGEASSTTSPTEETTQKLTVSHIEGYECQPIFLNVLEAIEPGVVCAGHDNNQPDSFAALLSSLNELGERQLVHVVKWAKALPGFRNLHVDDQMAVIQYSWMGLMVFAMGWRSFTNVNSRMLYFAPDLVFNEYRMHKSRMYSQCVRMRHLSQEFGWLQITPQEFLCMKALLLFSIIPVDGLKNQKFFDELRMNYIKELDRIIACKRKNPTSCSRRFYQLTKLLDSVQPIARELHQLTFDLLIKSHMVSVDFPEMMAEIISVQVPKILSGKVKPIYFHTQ
Item-by-item account of Emax
Form entry: value (%) — number only.

smiles-data: Cc1cc(N2C(=O)C3(CCC3)N(c3ccc(Oc4ccncn4)cc3)C2=S)cnc1C#N
Emax / %: 99.7

Q) Supply Emax value. Item: N#Cc1ncc(N2C(=O)C3(CCC3)N(c3ccc4ccncc4c3)C2=S)cc1C(F)(F)F
A) 100

Q) Supply Emax value. Item: N#Cc1ncc(N2C(=O)C3(CCC3)N(c3cccnc3)C2=S)cc1C(F)(F)F
A) 100

Q) Supply Emax value. Item: CC(C)CCNC(=O)c1ccc(N2C(=S)N(c3cnc(C#N)c(C(F)(F)F)c3)C(=O)C23CCC3)cc1F
A) 98.8
